System: MDA-MB-468 breast
Assay: NCI tumour cell line growth inhibition, 48 h
endpoint label: TGI (µM)
The answer is to be given in µM; state only the numeric part.

- smiles structure: "O=C(Nc1ccc(F)cc1)Nc1ccc(Cl)c([N+](=O)[O-])c1"
  test target: "MDA-MB-468 breast"
  TGI [µM]: 7.54
- smiles structure: "CC(=O)Nc1nc(-c2ccc(N3CCN(C)CC3)c(NS(=O)(=O)c3ccc(C(F)(F)F)cc3)c2)cs1"
  test target: "MDA-MB-468 breast"
  TGI [µM]: 7.95

// next entry
Any idea what its TGI is? The compound is `CN(C)c1ccc(/C=C\C2=[N+](C)c3ccccc3C2(C)C)cc1` 5.08
